Target: T1, Pin3, Q06449
T1 sequence (Q06449 53-122, looked up): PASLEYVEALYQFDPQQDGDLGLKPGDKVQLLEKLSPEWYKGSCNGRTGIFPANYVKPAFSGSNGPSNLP
Test: SPOT array
Details: median of control spots 2171
READOUT NAME: SPOT intensity

[I] VPPVPLPFGIPPFPM
[II] RTIRKLPLMSLSEYF
[III] AERNYAPRLPRRETS
[IV] RTRRRPPPPPIPSTQ
**Query** Hello, I need these entries ordered by SPOT intensity, highest reading first. Thanks! To answer, write out the labels according to the requested order.
**Result** I, II, III, IV
